Assay: Tmax in Sprague-Dawley rat at 50 mg/kg, po measured upto 24 hrs by HPLC-MS/MS analysis
Assay type: ADME, organism-based
Details: in vivo
result.type: Tmax (h)
# number only, unit h dropped from output

Problem: Item `CCS(=O)(=O)N1CCC(c2nc(-c3ccc(F)cc3)c(-c3ccnc(Nc4ccc5c(ccn5CCN(C)C)c4)n3)s2)CC1` : provide Tmax
Solution: 2

---

Assay: Half life in Sprague-Dawley rat at 50 mg/kg, po measured upto 24 hrs by HPLC-MS/MS analysis
Assay type: ADME, organism-based
Details: in vivo
result.type: half-life (h)
Give the value, in units of h, as a plain number.

Problem: Determine from records and report half-life for `CCS(=O)(=O)N1CCC(c2nc(-c3ccc(F)cc3)c(-c3ccnc(Nc4ccc5c(ccn5CCN(C)C)c4)n3)s2)CC1`
Solution: 8.49

---

Target: Epidermal growth factor receptor (Homo sapiens, UniProt P00533, C797S/L858R/T790M)
Sequence (P00533 25-1210 T790M/C797S/L858R limits assumed): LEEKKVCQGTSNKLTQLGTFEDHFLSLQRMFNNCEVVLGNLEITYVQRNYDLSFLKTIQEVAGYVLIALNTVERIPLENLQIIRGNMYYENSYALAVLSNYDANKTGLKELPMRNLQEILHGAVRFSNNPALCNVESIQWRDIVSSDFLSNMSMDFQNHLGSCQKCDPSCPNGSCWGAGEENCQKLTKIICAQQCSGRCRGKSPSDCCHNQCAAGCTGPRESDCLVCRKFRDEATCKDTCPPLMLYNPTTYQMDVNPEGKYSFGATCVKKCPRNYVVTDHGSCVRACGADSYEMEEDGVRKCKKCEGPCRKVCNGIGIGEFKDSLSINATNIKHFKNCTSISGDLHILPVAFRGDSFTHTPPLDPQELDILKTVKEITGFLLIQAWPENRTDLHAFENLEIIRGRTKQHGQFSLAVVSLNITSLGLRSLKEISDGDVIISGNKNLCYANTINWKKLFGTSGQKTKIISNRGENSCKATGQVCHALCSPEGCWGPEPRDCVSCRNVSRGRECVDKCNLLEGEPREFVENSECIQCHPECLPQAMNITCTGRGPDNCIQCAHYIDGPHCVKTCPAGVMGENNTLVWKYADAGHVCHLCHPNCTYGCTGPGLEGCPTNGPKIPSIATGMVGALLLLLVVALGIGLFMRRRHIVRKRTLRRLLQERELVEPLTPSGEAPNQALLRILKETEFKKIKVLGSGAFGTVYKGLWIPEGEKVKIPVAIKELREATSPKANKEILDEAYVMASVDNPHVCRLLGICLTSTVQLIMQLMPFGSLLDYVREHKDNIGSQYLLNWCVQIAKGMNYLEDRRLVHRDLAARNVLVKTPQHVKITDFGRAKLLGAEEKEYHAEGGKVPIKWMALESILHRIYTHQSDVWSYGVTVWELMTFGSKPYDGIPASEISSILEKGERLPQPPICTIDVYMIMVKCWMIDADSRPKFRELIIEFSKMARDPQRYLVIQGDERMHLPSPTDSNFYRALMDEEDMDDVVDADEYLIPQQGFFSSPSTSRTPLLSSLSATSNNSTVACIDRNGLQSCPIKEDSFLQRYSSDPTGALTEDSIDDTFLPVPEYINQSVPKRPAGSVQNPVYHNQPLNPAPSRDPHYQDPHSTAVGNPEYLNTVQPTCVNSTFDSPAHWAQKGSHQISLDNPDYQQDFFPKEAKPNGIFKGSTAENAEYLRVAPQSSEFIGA
The following compounds are shown together with reported pIC50 values.
pIC50 here: minus log base 10 of the concentration, concentration in moles per litre.

• CCS(=O)(=O)Nc1nc(-c2ccc(F)cc2)c(-c2ccnc(Nc3ccc(N4CCN(C)CC4)cc3OC)n2)s1 = 8.60

Problem: Return the recorded pIC50 value; entry: `CCS(=O)(=O)N1CCC(c2nc(-c3ccc(F)cc3)c(-c3ccnc(Nc4ccc(N5CCOCC5)cc4OC)n3)s2)CC1`
Solution: 7.15

Problem: Fill in reported pIC50 for this entry: `CC(C)c1nc(-c2ccc(F)cc2)c(-c2ccnc(Nc3ccc4c(ccn4CCN(C)C)c3)n2)s1`
Solution: 7.70

Problem: Give a short answer stating reported pIC50 for `CCS(=O)(=O)Nc1nc(-c2ccc(F)cc2)c(-c2ccnc(Nc3ccc4c(ccn4CCN(C)C)c3)n2)s1` .
Solution: 9.05

Problem: Give me measured pIC50, please, for this compound: `CN(C)CCn1ccc2cc(Nc3nccc(-c4sc(NS(C)(=O)=O)nc4-c4ccc(F)cc4)n3)ccc21`
Solution: 8.60

Problem: Dear colleague, please send me the reported pIC50 for `COc1cc(N2CCC(N3CCN(C)CC3)CC2)c(C)cc1Nc1nccc(-n2ccnc2-c2ccc(F)cc2)n1` when you can.
Solution: 7.55

Problem: Report pIC50, nothing else, for this compound: `CCS(=O)(=O)N1CCC(c2nc(-c3ccc(F)cc3)c(-c3ccnc(Nc4ccc(C5CCN(C)CC5)cc4)n3)s2)CC1`
Solution: 7.82

Problem: Answer with reported pIC50 of `CN(C)CCn1ccc2cc(Nc3nccc(-c4sc(N5CCOCC5)nc4-c4ccc(F)cc4)n3)ccc21`
Solution: 7.59

Problem: Identify the reported pIC50 for the following entry. `CCS(=O)(=O)N1CCC(c2nc(-c3ccc(F)cc3)c(-c3ccnc(Nc4ccc(N5CCOCC5)c(F)c4)n3)s2)CC1`
Solution: 7.11

Problem: Consider the compound `CCN1CCN(c2ccc(Nc3nccc(-c4sc(C5CCN(S(=O)(=O)CC)CC5)nc4-c4ccc(F)cc4)n3)cc2)CC1` and give its recorded pIC50.
Solution: 7.59

Problem: Give reported pIC50 value for `CN(C)CCn1ccc2cc(Nc3nccc(-n4ccc(-c5ccc(F)cc5)n4)n3)ccc21`
Solution: 6.39

---

For reference, IC50 measured on Epidermal growth factor receptor (Homo sapiens, UniProt P00533, C797S/L858R/T790M):
// return numeric value only (unit: nM, not printed)

Solved entries:
* CN(C)CCn1ccc2cc(Nc3nccc(-n4ccnc4-c4ccc(F)cc4)n3)ccc21 | 17
* CN(C)CCn1ccc2cc(Nc3nccc(-c4sc(N)nc4-c4ccc(F)cc4)n3)ccc21 | 2.1

Problem: Recall and state the measured IC50 for `CCS(=O)(=O)N1CCC(c2nc(-c3ccc(F)cc3)c(-c3ccnc(Nc4ccc(N5CCOCC5)cc4)n3)s2)CC1` .
Solution: 58

Problem: Give recorded IC50. `CCS(=O)(=O)Nc1nc(-c2ccc(F)cc2)c(-c2ccnc(Nc3cc(-c4cnn(C)c4)c(N4CCOCC4)cc3OC)n2)s1`
Solution: 70.1

---

Test: MRT (0 to infinity) in Sprague-Dawley rat at 50 mg/kg, po measured upto 24 hrs by HPLC-MS/MS analysis
Assay type: ADME, organism-based
Details: in vivo
result.type: MRT inf (h)
All answers are understood in h, so give the number only.

Problem: Give me measured MRT inf, please, for this compound: `CCS(=O)(=O)N1CCC(c2nc(-c3ccc(F)cc3)c(-c3ccnc(Nc4ccc5c(ccn5CCN(C)C)c4)n3)s2)CC1`
Solution: 5.43

---

We begin with a simple list: items and their reported pIC50.
Target: Epidermal growth factor receptor (Homo sapiens, UniProt P00533, C797S/L858R/T790M)
Would you please state pIC50, meaning minus log10 of the concentration in mol/L, as a bare number?

Worked examples, 6 molecules total:
- CCS(=O)(=O)N1CCC(c2nc(-c3ccc(F)cc3)c(-c3ccnc(Nc4ccc5c(ccn5CCN5CCOCC5)c4)n3)s2)CC1: 7.15
- CN(C)CCn1ccc2cc(Nc3nccc(-c4sc(NS(=O)(=O)c5ccc(F)cc5)nc4-c4ccc(F)cc4)n3)ccc21: 7.82
- CC(C)S(=O)(=O)Nc1nc(-c2ccc(F)cc2)c(-c2ccnc(Nc3ccc4c(ccn4CCN(C)C)c3)n2)s1: 8.47
- CN(C)CCn1ccc2cc(Nc3nccc(-c4sc(NS(=O)(=O)C5CCCCC5)nc4-c4ccc(F)cc4)n3)ccc21: 7.70
- CCS(=O)(=O)Nc1nc(-c2ccc(F)cc2)c(-c2ccnc(Nc3ccc(C4CCN(C)CC4)cc3)n2)s1: 8.68
- CNc1nc(-c2ccc(F)cc2)c(-c2ccnc(Nc3ccc4c(ccn4CCN(C)C)c3)n2)s1: 7.72

Problem: Provide pIC50, recorded with Epidermal growth factor receptor (Homo sapiens, UniProt P00533, C797S/L858R/T790M), of `CCS(=O)(=O)Nc1nc(-c2ccc(F)cc2)c(-c2ccnc(Nc3ccc(N4CCOCC4)c(F)c3)n2)s1`
Solution: 8.39

Problem: Recall the reported pIC50 of `CCS(=O)(=O)N1CCC(c2nc(-c3ccc(F)cc3)c(-c3ccnc(Nc4ccc(N5CCN(C(C)C)CC5)cc4)n3)s2)CC1` on Epidermal growth factor receptor (Homo sapiens, UniProt P00533, C797S/L858R/T790M) and write it down.
Solution: 7.31

Problem: Report pIC50 from Epidermal growth factor receptor (Homo sapiens, UniProt P00533, C797S/L858R/T790M) testing of `CCN1CCN(c2ccc(Nc3nccc(-c4sc(NS(=O)(=O)CC)nc4-c4ccc(F)cc4)n3)cc2)CC1`
Solution: 8.66

---

As a worked illustration, we turn to IC50 data collected for Epidermal growth factor receptor (Homo sapiens, UniProt P00533, L858R).
Answer in nM, number only, no unit symbol.

- CCS(=O)(=O)N1CCC(c2nc(-c3ccc(F)cc3)c(-c3ccnc(Nc4ccc(N5CCN(C)CC5)cc4)n3)s2)CC1: 2.4
- CC(=O)Nc1nc(-c2ccc(F)cc2)c(-c2ccnc(Nc3ccc4c(ccn4CCN(C)C)c3)n2)s1: 2.1
- CCS(=O)(=O)N1CCC(c2nc(-c3ccc(F)cc3)c(-c3ccnc(Nc4ccc5c(ccn5CCN(C)C)c4)n3)s2)CC1: 3

Please turn your attention to the following entry.
Problem: // fetch IC50; item: `CCS(=O)(=O)N1CCC(c2nc(-c3ccc(F)cc3)c(-c3ccnc(Nc4ccc(N5CCN(C)CC5)c(C)c4)n3)s2)CC1` ; system: Epidermal growth factor receptor (Homo sapiens, UniProt P00533, L858R)
Sequence (P00533 25-1210 L858R limits assumed): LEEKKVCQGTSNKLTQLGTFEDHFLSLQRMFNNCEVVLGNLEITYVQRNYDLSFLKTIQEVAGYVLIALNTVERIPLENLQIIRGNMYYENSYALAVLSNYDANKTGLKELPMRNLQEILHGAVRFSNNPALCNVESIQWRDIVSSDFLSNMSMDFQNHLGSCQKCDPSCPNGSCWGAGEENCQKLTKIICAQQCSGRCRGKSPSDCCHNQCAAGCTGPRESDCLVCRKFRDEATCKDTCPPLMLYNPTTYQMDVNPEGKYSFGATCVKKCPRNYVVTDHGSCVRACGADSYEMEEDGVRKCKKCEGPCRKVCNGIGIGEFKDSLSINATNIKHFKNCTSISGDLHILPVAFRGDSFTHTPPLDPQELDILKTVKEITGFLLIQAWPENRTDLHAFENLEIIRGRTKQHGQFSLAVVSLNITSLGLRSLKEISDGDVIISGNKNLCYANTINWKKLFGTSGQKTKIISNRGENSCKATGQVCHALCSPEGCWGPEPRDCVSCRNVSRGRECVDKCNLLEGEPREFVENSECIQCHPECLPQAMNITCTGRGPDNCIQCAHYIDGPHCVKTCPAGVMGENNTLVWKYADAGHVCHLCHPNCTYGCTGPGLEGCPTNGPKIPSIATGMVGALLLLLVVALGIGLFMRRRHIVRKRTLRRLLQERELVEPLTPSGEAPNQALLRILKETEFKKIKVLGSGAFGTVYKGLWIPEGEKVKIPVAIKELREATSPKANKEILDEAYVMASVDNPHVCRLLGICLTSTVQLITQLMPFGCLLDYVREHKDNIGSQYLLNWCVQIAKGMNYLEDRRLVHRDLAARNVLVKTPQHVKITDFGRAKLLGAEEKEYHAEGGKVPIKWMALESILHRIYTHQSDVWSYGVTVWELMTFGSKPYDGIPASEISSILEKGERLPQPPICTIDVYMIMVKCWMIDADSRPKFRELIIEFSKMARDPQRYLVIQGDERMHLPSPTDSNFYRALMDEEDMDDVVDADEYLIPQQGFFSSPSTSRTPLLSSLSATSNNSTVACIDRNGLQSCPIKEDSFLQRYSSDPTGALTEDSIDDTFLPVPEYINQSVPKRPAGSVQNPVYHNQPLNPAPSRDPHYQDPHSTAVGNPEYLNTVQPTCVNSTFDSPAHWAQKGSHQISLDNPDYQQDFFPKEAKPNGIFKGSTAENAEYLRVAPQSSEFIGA
Solution: 5.8

---

System: PC-9
Experiment: Antiproliferative activity against human PC-9 cells assessed as inhibition of cell growth measured after 72 hrs by CCK8 assay
Type: functional, cell-based
Settings: PC-9, 72 h
pIC50: −log10 of the molar value.
Label scheme for pIC50: lower than 8 is no, 8 and above is yes.

• CCS(=O)(=O)N1CCC(c2nc(-c3ccc(F)cc3)c(-c3ccnc(Nc4ccc5c(ccn5CCN(C)C)c4)n3)s2)CC1 = yes
• CC(=O)Nc1nc(-c2ccc(F)cc2)c(-c2ccnc(Nc3ccc4c(ccn4CCN(C)C)c3)n2)s1 = no
• CCS(=O)(=O)N1CCC(c2nc(-c3ccc(F)cc3)c(-c3ccnc(Nc4ccc(N5CCN(C)CC5)c(C)c4)n3)s2)CC1 = no
• COc1cc(N2CCC(N3CCN(C)CC3)CC2)ccc1Nc1ncc(Cl)c(Nc2ccccc2P(C)(C)=O)n1 = no

Consider the record given below.
Problem: Confirm if pIC50 reported for the compound `C=CC(=O)Nc1cc(Nc2nccc(-c3cn(C)c4ccccc34)n2)c(OC)cc1N(C)CCN(C)C` is 8 or above.
Solution: yes

---

Experiment: Half life in Sprague-Dawley rat at 5 mg/kg, iv measured upto 24 hrs by HPLC-MS/MS analysis
Assay type: ADME, organism-based
Details: in vivo
result.type: half-life
Answer format reminder: number followed by unit.

Problem: Name the recorded half-life of the item `CCS(=O)(=O)N1CCC(c2nc(-c3ccc(F)cc3)c(-c3ccnc(Nc4ccc5c(ccn5CCN(C)C)c4)n3)s2)CC1` in your answer.
Solution: 4.7 h
